Tested on: Acetic acid bacteria
Conditions: Part II, 1 g/l in apple juice pH 4.5, 25° C., 14 days after inoculation (2.8 × 10^4)
The reader will find reported Number of surviving microorganisms per g of contaminated sample, Acetic acid bacteria values listed item by item below.
Measured Attribute: Number of surviving microorganisms per g of contaminated sample, Acetic acid bacteria

| Molecule | Value Measured |
| --- | --- |
| CC(=O)[O-].CC(=O)[O-].[Ca+2] [Calcium Acetate] | 1.5 × 10^6 CFU/g |
| C/C=C/C=C/C(=O)[O-].CC(=O)[O-].[Ca+2] [calcium acetate sorbate] | 1.6 × 10^5 CFU/g |
| C/C=C/C=C/C(=O)[O-].O=C[O-].[Ca+2] | 2.6 × 10^4 CFU/g |
| O=C[O-].O=C[O-].[Ca+2] [Calcium Formate] | >3.0 × 10^6 CFU/g |

====

System: Molds II
Conditions: Part II, 1 g/l in apple juice pH 4.5, 25° C., 1 day after inoculation (2.5 × 10^4)
The reader will find reported Number of surviving microorganisms per g of contaminated sample, Molds II values listed item by item below.
Measured Attribute: Number of surviving microorganisms per g of contaminated sample, Molds II

| Compound | Value Measured |
| --- | --- |
| C/C=C/C=C/C(=O)[O-].CC(=O)[O-].[Ca+2] [calcium acetate sorbate] | 4.4 × 10^3 CFU/g |
| CC(=O)[O-].CC(=O)[O-].[Ca+2] [Calcium Acetate] | 1.5 × 10^4 CFU/g |
| C/C=C/C=C/C(=O)[O-].O=C[O-].[Ca+2] | 3.9 × 10^3 CFU/g |
| O=C[O-].O=C[O-].[Ca+2] [Calcium Formate] | 1.0 × 10^4 CFU/g |

====

The reader will find reported Number of surviving microorganisms per g of contaminated sample, Acetic acid bacteria values listed item by item below.
Tested on: Acetic acid bacteria
Conditions: Part II, 1 g/l in apple juice pH 4.5, 25° C., 3 days after inoculation (2.8 × 10^4)
Measured Attribute: Number of surviving microorganisms per g of contaminated sample, Acetic acid bacteria

| Molecule | Value Measured |
| --- | --- |
| C/C=C/C=C/C(=O)[O-].CC(=O)[O-].[Ca+2] [calcium acetate sorbate] | 6.5 × 10^3 CFU/g |
| CC(=O)[O-].CC(=O)[O-].[Ca+2] [Calcium Acetate] | >3.0 × 10^6 CFU/g |
| O=C[O-].O=C[O-].[Ca+2] [Calcium Formate] | 2.5 × 10^6 CFU/g |
| C/C=C/C=C/C(=O)[O-].O=C[O-].[Ca+2] | 1.6 × 10^4 CFU/g |

====

Tested on: Thermophilic bacilli
Conditions: Part II, 1 g/l in apple juice pH 4.5, 25° C., 1 day after inoculation (1.3 × 10^4)
The reader will find reported Number of surviving microorganisms per g of contaminated sample, Thermophilic bacilli values listed item by item below.
Measured Attribute: Number of surviving microorganisms per g of contaminated sample, Thermophilic bacilli

| Compound | Value Measured |
| --- | --- |
| C/C=C/C=C/C(=O)[O-].O=C[O-].[Ca+2] | 2.0 × 10^3 CFU/g |
| C/C=C/C=C/C(=O)[O-].CC(=O)[O-].[Ca+2] [calcium acetate sorbate] | 2.3 × 10^3 CFU/g |
| CC(=O)[O-].CC(=O)[O-].[Ca+2] [Calcium Acetate] | 2.1 × 10^3 CFU/g |
| O=C[O-].O=C[O-].[Ca+2] [Calcium Formate] | 2.3 × 10^3 CFU/g |

Provenance of the data: patent US6693216B2
